Molecular target: Acetylcholinesterase (Torpedo californica, UniProt P04058)
Sequence (P04058 whole entry): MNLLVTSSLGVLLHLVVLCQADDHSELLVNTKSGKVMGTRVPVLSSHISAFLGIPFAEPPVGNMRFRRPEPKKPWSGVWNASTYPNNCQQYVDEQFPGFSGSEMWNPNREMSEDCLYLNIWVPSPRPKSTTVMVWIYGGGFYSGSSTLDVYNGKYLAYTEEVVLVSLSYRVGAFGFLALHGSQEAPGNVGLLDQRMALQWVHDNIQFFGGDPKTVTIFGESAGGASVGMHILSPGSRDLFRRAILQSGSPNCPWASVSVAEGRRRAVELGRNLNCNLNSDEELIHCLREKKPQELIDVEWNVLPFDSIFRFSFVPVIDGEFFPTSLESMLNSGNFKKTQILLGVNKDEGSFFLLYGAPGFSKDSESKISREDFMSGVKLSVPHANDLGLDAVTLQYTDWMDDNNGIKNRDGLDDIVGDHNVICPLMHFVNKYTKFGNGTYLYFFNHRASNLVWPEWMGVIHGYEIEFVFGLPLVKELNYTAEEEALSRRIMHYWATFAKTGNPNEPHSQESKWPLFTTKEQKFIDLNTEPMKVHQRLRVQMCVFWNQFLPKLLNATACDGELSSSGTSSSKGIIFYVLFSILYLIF
Property name: pIC50
Numbers only, as −log10 of the molar value.

QUERY: Kindly state the measured pIC50 obtained for Cn1ccc2c3nc4cc(Br)ccc4c4c3c(c(=O)c-2c1)[N+](C)(C)CC4=O [PETROSAMINE] with Acetylcholinesterase (Torpedo californica, UniProt P04058).
RESULT: 7.04
